In this section, each of the binders is paired with its reported pEC50, cAMP accumulation.
Biological target: human GLP-1 receptor (GLP-1R) (human, UniProt P43220 24-463)
Sequence (P43220 24-463): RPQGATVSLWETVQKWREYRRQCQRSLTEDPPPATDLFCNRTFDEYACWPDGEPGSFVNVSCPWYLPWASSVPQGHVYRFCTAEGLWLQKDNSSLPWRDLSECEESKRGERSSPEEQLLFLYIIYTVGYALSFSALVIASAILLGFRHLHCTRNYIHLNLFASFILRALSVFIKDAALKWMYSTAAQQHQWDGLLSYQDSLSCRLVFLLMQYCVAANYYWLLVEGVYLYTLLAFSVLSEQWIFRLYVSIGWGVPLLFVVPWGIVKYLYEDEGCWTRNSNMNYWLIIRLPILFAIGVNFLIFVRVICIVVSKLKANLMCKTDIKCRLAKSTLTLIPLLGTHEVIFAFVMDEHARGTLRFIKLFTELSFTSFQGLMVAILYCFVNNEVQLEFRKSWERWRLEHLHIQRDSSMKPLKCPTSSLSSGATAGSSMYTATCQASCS
Test: cell-based or functional assay
*1 amine or outer side, *2 acyl side, *3 side chain or, on linkers, in order; H or OH if unused. Bridges are numbered along the chain shown (N, C = ends). Primed or numbered codes have the meaning given here. Where no end group is shown, it is not given here. Side-chain parts run from the residue outwards. [ ]: non-standard residue; d: D form. The star is where a group is joined. dpeg″ = spacer —[CO(CH2)O(CH2)2O(CH2)NH]—, O=C(COCCOCN[*:1])[*:2]; dpeg = —[CO(CH2)O(CH2)2O(CH2)NH]— spacer, O=C(COCCOCN[*:1])[*:2]; C20 diacid = O=C(O)CCCCCCCCCCCCCCCCCCC(=O)*; γGlu = O=C(O)[C@H](CCC(=O)[*:2])N[*:1]; Aib = CC(C)(N)C(=O)O

{"binder": "YSHGTFTSDYSKYLDK([γGlu-γGlu-dpeg″-C20 diacid])KYAEKFVKWLEDEPSSGKPPPS-OH (lactam 20-24) [Compound A32]", "pEC50, cAMP accumulation": "< 9 pEC50 (-log M)"}
{"binder": "YSHGTFTSDYSKYLD[Aib]KYAQK([γGlu-γGlu-dpeg″-C20 diacid])FVKWLEDEPSSGAPPPS-OH (lactam 24-28) [Compound A30]", "pEC50, cAMP accumulation": "< 9 pEC50 (-log M)"}
{"binder": "YSHGTFTSDYSKYLDK([γGlu-γGlu-dpeg-C20 diacid])KYAKEFV[Aib]WLESEPSSGAPPPS-OH [Compound A22]", "pEC50, cAMP accumulation": "< 9 pEC50 (-log M)"}
